molecular target: NMDA receptor subunits 1A/2C (NR1A+NR2C) (Rattus norvegicus, UniProt P35439+Q00961); experiment: Electrophysiological assay at cloned NMDA receptor subunits expressed in Xenopus oocytes, 1A/2C; type: cell-based; details: cloned rat NMDA receptor in Xenopus oocytes, two-electrode voltage clamp, currents activated by glutamate and glycine; read-out: Subunits (IC50(μM)) 1A/2C
Sequence (Q00961 20-1237, other chains not shown): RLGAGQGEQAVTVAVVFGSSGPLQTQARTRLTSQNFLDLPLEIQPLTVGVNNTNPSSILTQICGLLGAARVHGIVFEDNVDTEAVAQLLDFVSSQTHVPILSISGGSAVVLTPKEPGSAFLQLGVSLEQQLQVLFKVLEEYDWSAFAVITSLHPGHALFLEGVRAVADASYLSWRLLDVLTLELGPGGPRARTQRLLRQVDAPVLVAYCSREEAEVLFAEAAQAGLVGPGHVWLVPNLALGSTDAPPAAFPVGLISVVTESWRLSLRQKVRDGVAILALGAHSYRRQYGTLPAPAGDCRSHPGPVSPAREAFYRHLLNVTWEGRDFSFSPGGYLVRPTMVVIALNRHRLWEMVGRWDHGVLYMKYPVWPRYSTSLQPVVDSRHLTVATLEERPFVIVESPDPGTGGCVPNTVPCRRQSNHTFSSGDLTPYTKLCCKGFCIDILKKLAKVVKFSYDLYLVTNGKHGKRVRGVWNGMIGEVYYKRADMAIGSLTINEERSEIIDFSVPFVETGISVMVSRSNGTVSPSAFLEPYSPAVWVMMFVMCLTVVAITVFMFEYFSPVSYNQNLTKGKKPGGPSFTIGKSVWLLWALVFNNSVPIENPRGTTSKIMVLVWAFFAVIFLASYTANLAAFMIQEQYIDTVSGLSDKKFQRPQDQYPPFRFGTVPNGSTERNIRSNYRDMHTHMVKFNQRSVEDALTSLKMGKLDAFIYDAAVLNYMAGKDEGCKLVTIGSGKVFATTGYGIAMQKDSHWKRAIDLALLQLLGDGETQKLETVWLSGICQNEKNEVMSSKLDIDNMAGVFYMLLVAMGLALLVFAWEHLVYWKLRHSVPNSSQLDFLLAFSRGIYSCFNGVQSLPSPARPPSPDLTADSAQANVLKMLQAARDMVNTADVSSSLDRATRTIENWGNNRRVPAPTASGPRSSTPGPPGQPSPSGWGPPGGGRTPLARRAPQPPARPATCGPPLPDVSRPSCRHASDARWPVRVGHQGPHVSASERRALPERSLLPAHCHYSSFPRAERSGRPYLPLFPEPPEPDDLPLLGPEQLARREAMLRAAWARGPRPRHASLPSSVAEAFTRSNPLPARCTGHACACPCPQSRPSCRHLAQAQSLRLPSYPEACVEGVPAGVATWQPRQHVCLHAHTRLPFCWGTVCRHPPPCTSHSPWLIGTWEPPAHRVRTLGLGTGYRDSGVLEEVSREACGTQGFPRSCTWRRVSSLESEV
Where a name gives a salt, the structure may show the parent alone.
Threshold check on IC50: strictly below 100 µM is Fulfilled; on or above 100 µM is Not fulfilled.

Q: Quick check: does O=[N+]([O-])c1ccc(OCCN2CCCCC2Cc2ccccc2)cc1 (stereo not drawn) [Example 21, hydrobromide] have IC50 under 100 µM?
Result: Not fulfilled

Q: Quick check: does Cl.Oc1ccc(OCCCN2CCCCC2Cc2ccccc2)cc1 (stereo not drawn) [Example 27, hydrochloride] have IC50 under 100 µM?
Result: Fulfilled

Q: Quick check: does c1ccc(CCCCN2CCCCC2Cc2ccccc2)cc1 (stereo not drawn) have IC50 under 100 µM?
Result: Fulfilled

Others:
Q: Quick check: does Cl.Fc1ccc(OCCN2CCCCC2Cc2ccc(Cl)cc2)cc1 (stereo not drawn) [Example 24, hydrochloride] have IC50 under 100 µM?
Result: Not fulfilled

Q: Quick check: does Br.c1ccc(CCCN2CCCCC2Cc2ccccc2)cc1 (stereo not drawn) [Example 4, hydrobromide] have IC50 under 100 µM?
Result: Not fulfilled

Q: Quick check: does c1ccc(CC2CCCCN2Cc2ccccc2)cc1 (stereo not drawn) [Example 2, 1,2-Dibenzylpiperidine, hydrobromide] have IC50 under 100 µM?
Result: Fulfilled

###

Reported IC50 is given for each of the following compounds.
molecular target: NMDA receptor subunits 1A/2A (NR1A+NR2A) (Rattus norvegicus, UniProt P35439+Q00959); experiment: Electrophysiological assay at cloned NMDA receptor subunits expressed in Xenopus oocytes, 1A/2A; assay type: cell-based; conditions: cloned rat NMDA receptor in Xenopus oocytes, two-electrode voltage clamp, currents activated by glutamate and glycine; read-out: Subunits (IC50(μM)) 1A/2A
Sequence (Q00959 23-1464, other chains not shown): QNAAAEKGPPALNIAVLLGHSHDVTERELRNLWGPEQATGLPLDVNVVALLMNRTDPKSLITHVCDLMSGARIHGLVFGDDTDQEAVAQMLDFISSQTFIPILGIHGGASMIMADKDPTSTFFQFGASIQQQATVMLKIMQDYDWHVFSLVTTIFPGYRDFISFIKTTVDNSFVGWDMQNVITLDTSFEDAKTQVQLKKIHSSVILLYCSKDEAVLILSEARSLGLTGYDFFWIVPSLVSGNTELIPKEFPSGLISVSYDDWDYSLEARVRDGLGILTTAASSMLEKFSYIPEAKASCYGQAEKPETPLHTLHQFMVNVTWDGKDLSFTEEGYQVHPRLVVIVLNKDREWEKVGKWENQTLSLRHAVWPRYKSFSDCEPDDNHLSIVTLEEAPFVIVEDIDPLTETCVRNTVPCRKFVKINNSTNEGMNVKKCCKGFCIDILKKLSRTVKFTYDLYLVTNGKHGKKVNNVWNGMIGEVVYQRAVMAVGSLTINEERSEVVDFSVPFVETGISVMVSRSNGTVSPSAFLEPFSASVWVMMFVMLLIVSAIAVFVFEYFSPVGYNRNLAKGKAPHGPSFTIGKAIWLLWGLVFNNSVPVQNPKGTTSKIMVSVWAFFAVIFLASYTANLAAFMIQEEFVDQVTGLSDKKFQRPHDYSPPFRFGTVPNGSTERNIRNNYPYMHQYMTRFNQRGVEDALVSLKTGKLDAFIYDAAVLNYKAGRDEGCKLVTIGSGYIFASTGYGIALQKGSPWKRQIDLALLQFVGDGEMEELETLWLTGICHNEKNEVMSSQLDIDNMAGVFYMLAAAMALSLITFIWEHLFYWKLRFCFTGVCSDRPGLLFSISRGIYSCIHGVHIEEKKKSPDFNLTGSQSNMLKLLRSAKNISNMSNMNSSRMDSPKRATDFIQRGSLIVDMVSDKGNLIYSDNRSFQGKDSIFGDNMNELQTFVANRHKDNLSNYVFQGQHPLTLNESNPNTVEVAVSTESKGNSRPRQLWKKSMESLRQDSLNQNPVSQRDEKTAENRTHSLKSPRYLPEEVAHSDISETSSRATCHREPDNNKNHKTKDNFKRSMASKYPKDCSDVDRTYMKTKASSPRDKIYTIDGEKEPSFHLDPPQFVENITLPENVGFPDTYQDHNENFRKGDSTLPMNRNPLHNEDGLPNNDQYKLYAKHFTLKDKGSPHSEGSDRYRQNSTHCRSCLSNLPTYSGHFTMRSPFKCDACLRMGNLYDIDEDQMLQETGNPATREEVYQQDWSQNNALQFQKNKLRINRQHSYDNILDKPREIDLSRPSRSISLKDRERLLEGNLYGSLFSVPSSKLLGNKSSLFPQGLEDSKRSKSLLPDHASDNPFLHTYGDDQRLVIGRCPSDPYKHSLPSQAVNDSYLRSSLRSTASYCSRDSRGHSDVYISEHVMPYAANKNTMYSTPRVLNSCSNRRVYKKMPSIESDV
Counter-ions that a name gives are not always drawn.
Just the number in µM, nothing appended.

Record O=[N+]([O-])c1ccc(OCCN2CCCCC2Cc2ccccc2)cc1 (centres unmarked) [Example 21, hydrobromide] ; system NMDA receptor subunits 1A/2A (NR1A+NR2A) (Rattus norvegicus, UniProt P35439+Q00959); IC50 = 60

###

Molecular target: NMDA receptor subunits 1A/2B (NR1A+NR2B) (Rattus norvegicus, UniProt P35439+Q00960)
Sequence (Q00960 27-1482, other chains not shown): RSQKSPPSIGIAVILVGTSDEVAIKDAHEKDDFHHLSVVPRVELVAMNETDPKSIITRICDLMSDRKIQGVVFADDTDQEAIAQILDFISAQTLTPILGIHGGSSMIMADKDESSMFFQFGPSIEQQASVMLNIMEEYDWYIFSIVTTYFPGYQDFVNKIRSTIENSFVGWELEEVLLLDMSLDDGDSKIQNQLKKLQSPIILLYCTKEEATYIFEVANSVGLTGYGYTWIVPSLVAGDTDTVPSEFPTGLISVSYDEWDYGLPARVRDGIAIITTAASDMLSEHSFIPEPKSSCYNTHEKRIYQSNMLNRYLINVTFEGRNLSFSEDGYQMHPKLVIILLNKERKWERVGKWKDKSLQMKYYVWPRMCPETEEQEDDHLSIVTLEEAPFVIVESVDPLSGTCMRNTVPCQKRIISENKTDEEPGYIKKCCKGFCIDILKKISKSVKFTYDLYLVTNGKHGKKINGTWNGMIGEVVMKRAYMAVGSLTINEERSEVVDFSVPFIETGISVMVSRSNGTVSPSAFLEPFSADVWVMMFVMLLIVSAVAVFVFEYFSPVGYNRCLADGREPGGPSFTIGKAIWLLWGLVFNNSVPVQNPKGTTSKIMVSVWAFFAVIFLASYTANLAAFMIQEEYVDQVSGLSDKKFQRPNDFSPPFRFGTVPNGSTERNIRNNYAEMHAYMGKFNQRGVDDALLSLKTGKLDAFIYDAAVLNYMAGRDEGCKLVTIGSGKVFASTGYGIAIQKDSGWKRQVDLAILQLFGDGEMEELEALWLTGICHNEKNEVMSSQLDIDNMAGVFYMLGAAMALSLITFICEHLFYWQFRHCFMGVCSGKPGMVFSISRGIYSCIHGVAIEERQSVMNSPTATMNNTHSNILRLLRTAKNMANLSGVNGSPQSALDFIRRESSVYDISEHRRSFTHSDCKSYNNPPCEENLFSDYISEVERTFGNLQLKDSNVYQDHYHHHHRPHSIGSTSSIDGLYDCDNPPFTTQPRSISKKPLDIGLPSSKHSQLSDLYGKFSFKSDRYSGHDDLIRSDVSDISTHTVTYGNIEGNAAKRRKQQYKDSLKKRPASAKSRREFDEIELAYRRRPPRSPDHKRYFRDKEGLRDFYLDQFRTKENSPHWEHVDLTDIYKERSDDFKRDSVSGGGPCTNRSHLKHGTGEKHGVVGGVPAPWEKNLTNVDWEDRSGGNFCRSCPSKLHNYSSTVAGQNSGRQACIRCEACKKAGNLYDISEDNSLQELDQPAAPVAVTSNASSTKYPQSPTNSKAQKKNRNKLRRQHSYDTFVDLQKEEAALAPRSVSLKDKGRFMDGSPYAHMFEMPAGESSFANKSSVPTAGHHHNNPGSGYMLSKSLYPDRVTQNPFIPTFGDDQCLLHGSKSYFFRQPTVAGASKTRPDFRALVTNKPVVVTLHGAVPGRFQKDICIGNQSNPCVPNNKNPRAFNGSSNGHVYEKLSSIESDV
Assay: Electrophysiological assay at cloned NMDA receptor subunits expressed in Xenopus oocytes, 1A/2B
Format: cell-based
Method: Electrophysiological Assays at NMDA Receptor Subunits The clones were transformed into appropriate host bacteria and plasmid preparations were made with conventional DNA purification techniques. A sample of each clone was linearized by restriction enzyme digestion and cRNA was synthesized with T3 RNA polymerase. The cRNA was diluted to 400 ng/μl and stored in 1 μl aliquots at −80° C. until injection. The Xenopus oocyte Expression System […]
Reported IC50 is given for each of the following compounds.
Just the number in µM, nothing appended.

Record Cl.Oc1ccc(OCCN2CCCCC2Cc2ccc(Cl)cc2)cc1 (centres unmarked) [Example 25, hydrochloride] ; system NMDA receptor subunits 1A/2B (NR1A+NR2B) (Rattus norvegicus, UniProt P35439+Q00960); IC50 = 4.2

Others:
Record Cl.Oc1ccc(OCCN2CCCCC2Cc2ccccc2)cc1 (centres unmarked) [Example 26, hydrochloride] ; system NMDA receptor subunits 1A/2B (NR1A+NR2B) (Rattus norvegicus, UniProt P35439+Q00960); IC50 = 15
